Property: pIC50; scope: individual compounds
- system: h12/15-LOX (Homo sapiens (Human))
- Sequence (P16050 whole entry): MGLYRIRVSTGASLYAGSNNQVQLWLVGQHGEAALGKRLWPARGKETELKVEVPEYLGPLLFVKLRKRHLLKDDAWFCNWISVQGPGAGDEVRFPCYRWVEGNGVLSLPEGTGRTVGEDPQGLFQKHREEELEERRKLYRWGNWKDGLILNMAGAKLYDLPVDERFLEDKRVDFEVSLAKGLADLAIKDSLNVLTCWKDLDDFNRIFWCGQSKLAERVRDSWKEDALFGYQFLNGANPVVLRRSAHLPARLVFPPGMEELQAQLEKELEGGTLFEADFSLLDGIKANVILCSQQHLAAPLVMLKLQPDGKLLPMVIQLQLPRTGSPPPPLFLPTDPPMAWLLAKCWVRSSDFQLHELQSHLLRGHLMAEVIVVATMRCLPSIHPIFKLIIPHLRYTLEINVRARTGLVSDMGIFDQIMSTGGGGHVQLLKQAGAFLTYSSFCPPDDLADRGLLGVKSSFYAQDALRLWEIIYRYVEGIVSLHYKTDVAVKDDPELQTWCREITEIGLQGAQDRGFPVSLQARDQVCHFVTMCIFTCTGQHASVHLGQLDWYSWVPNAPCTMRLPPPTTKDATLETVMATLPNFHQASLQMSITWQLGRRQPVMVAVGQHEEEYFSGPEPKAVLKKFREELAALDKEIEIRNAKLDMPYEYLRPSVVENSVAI
- protocol-details: 12/15-LOX enzyme inhibition IC50 assay (Examples 1 and 2)
Friendly reminder that pIC50 comes from taking -log10 of the concentration in mol/L.

Example entries and their recorded answers appear below.
compound | system | pIC50
COCCOCCNc1oc(-c2cc(Cl)cc(Cl)c2OC(F)F)nc1C#N [Compound 33] | h12/15-LOX (Homo sapiens (Human)) | 6.19
Cc1c(Cl)cc(Cl)cc1-c1nc(C#N)c(NCCCCO)o1 [Compound 19] | h12/15-LOX (Homo sapiens (Human)) | 6.34
N#Cc1nc(-c2cc(Cl)cc(Cl)c2Cl)oc1NCCOCCNc1ccccc1 [Compound 81] | h12/15-LOX (Homo sapiens (Human)) | 6.59
N#Cc1nc(-c2cc(Cl)cc(Cl)c2Cl)oc1NCCOCCOc1ccncc1F [Compound 84] | h12/15-LOX (Homo sapiens (Human)) | 6.31
CNc1oc(-c2cc(F)cc(Cl)c2Cl)nc1C#N [Compound 11] | h12/15-LOX (Homo sapiens (Human)) | 6.06

Recorded pIC50 of N#Cc1nc(-c2cc(Cl)cc(Cl)c2Cl)oc1NCCOCCN1CCCC(F)(F)C1 [Compound 75] , please.
5.96

Recorded pIC50 of CCOCCOCCNc1oc(-c2cc(Cl)cc(Cl)c2Cl)nc1C#N [Compound 69] , please.
6.48

Recorded pIC50 of CN(CCOCCNc1oc(-c2cc(Cl)cc(Cl)c2Cl)nc1C#N)CC(F)(F)F [Compound 73] , please.
6.33

Recorded pIC50 of CNc1oc(-c2cc(Cl)cc(Cl)c2C)nc1C#N [Compound 2] , please.
7.20

Recorded pIC50 of CNc1oc(-c2cc(C)cc(Cl)c2Cl)nc1C#N [Compound 10] , please.
6.42

Recorded pIC50 of N#Cc1nc(-c2cc(Cl)cc(C(F)(F)F)c2Cl)oc1NCCCCCO [Compound 27] , please.
6.26

====

- protocol-details: Metabolic stability of exemplified compounds (Example 4)
- Assay type: in vitro ADME
- assay-context: Human liver microsomes
property-name: Extr (EH)

sample-smiles | property-name | result
COCC/C=C/CNc1oc(-c2cc(Cl)cc(Cl)c2Cl)nc1C#N | Extr (EH) | ** (“**” 50-100%)
COCCOCCNc1oc(-c2cc(Cl)cc(Cl)c2Cl)nc1C#N | Extr (EH) | * (“*” <50%)
CC(C)OCCOCCNc1oc(-c2cc(Cl)cc(Cl)c2Cl)nc1C#N | Extr (EH) | * (“*” <50%)
CNc1oc(-c2cc(Cl)cc(Cl)c2Cl)nc1C#N | Extr (EH) | ** (“**” 50-100%)
N#Cc1nc(-c2cc(Cl)cc(Cl)c2Cl)oc1NCCCCCO | Extr (EH) | ** (“**” 50-100%)

Recorded Extr (EH) of N#Cc1nc(-c2cc(Cl)cc(Cl)c2Cl)oc1NCCCO , please.
* (“*” <50%)

Recorded Extr (EH) of COCCOCCCCNc1oc(-c2cc(Cl)cc(Cl)c2Cl)nc1C#N , please.
** (“**” 50-100%)

Recorded Extr (EH) of N#Cc1nc(-c2cc(Cl)cc(Cl)c2Cl)oc1NCCOCCO , please.
** (“**” 50-100%)

Recorded Extr (EH) of N#Cc1nc(-c2cc(Cl)cc(Cl)c2Cl)oc1NC/C=C/COCc1ccccc1 , please.
** (“**” 50-100%)
